molecular target: GLP-1 receptor (GLP-1R), primary cAMP assay (human, UniProt P43220 24-463); assay: cell-based or functional assay
Starred links: 1 amine or outer side, 2 acyl side, 3 side chain; linkers in the order of their positions; H or OH if unused. Non-standard residues stand in square brackets, D forms with d. Groups on a side chain read outwards from the residue. Primed or numbered codes have the meaning given here. No end group written: not given here. *: point of attachment. γGlu = O=C(O)[C@H](CCC(=O)[*:2])N[*:1]; Palmitoyl = CCCCCCCCCCCCCCCC(=O)*; αMeF = C[C@](N)(Cc1ccccc1)C(=O)O; αMeK = C[C@](N)(CCCCN)C(=O)O; αMeS = C[C@](N)(CO)C(=O)O; PEG2′ = not defined here; Aib = CC(C)(N)C(=O)O
Assay Endpoint: Primary assay EC50 (cAMP), n1 (nM)

A. H[Aib]EGS[αMeF]TSDV[αMeS]SK([PEG2′-PEG2′-γGlu-Palmitoyl])LEGEAA[αMeK]EFIK([PEG2′-PEG2′-γGlu-Palmitoyl])WVVEGG-NH2 [SEQ ID NO: 265]
B. H[Aib]EGS[αMeF]TSDV[αMeS]SYK([PEG2′-PEG2′-γGlu-Palmitoyl])EGEAA[αMeK]EFIAWK([PEG2′-PEG2′-γGlu-Palmitoyl])VEGG-NH2 [SEQ ID NO: 273]
Consider A and B . Which of these has its Primary assay EC50 (cAMP), n1 at a higher number? Respond with the label that goes with your answer.
B
(B: 0.741 nM, A: 0.0391 nM)
